All figures here come from a melting point compilation (Tetko et al.; mined from patent text by program, amines drawn as free bases though some values may be those of a salt).

Reported melting point by item:

| compound | reported_metric | reported |
| --- | --- | --- |
| CS(=O)(=O)c1ccc(-c2cnn(CC(F)(F)F)c(=O)c2-c2ccc(Cl)cc2)cc1 | melting point | 55 to 57 °C |
| COc1ccc(C2C3=C(COC3=O)Nc3ccc4ncsc4c32)cc1O (stereo not drawn) | melting point | 327 to 329 °C |

q: Could you tell me which melting point is on file for CCCc1nc(C(C)O)c(C(=O)O)n1Cc1ccc(-c2ccccc2-c2nnn[nH]2)cc1 (stereo not drawn) ?
a: 198 to 201 °C

---

reported_metric: melting point

| compound | melting point |
| --- | --- |
| COC(=O)C1=C(C)NC(C)=C(C(=O)OCCN2CCN(C(c3ccccc3)c3ccccc3)CC2)C1c1ccccc1Cl (configuration not stated) | 81 to 83 °C |

q: Report melting point for NC(=O)C1=C(C(=O)Nc2cc(OC3CCCC3)c(Cl)cc2F)CCCC1 please.
a: 200 to 201 °C

q: Name the recorded melting point for O=C(c1ccc(C(F)(F)F)cc1)N1CCC(=Cc2ccc(C3=NCCO3)cc2)CC1 .
a: 142 °C

q: Reported melting point, compound Fc1ccc2[nH]c3c(c2c1)CN(CCCc1cccnc1)CC3 : ____
a: 215 to 218 °C

q: Bench note: what melting point did O=C(O)c1cn(C2CC2)c2c(F)c(N3CCC(=NO)C3)c(F)c(F)c2c1=O show?
a: 300 °C

q: Can you look up the measured melting point of O=C1Cc2c(cc3ccccc3c2Cl)C(c2ccccc2Cl)N1 (configuration not stated) for me?
a: 252 to 254 °C
